Molecular target: 5-HT1a (Homo sapiens)
Construct: purchased Euroscreen/BioSignal Packard Inc
Sequence (P08908 whole entry): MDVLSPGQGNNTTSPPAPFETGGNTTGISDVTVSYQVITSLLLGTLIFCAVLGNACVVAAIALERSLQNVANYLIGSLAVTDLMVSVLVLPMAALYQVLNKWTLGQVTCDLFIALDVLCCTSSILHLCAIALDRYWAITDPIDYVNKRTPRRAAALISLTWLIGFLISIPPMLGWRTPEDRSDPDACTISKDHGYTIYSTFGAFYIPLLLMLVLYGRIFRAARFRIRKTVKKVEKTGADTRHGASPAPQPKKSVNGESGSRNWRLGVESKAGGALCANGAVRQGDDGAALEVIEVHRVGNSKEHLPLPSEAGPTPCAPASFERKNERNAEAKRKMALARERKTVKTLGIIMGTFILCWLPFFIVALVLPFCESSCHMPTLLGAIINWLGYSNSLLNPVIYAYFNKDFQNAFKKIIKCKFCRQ
Assay: Radioligand binding, 5-HT1a ([3H]8-OH-DPAT)
Conditions: Table 4; [3H]8-OH-DPAT 0.5 nM; read-out: Binding affinity, IC50 (nM) 5-HT1a
Please go through the items and note down their IC50.
Answers are plain numbers, in nM.

Please review the following examples before continuing.
>>> df
                                   compound  measured_metric  data_value
0  CCN(CC)c1ccc(C2(C)C(=O)c3c(N4CCN(C)CC4)cc(Cl)cc3N(Cc3ccccc3)C2=O)cc1 (stereo not drawn)             IC50        6450
1  CC1(c2ccccc2)C(=O)c2c(N3CCNCC3)cc(Cl)cc2N(Cc2ccccc2)C1=O (stereo not drawn)             IC50        3910
2  CC1(c2ccc(O)cc2)C(=O)c2c(N3CCNCC3)cc(Cl)cc2N(Cc2ccc3ccccc3c2)C1=O (stereo not drawn)             IC50        7510
3  COc1ccc([C@]2(C)C(=O)c3c(N4CCNCC4)cc(Cl)cc3N(Cc3ccccc3)C2=O)cc1             IC50        3280
4  COc1ccc(C2(C)C(=O)c3c(N4CCNCC4)cc(Cl)cc3N(Cc3cccnc3)C2=O)cc1 (stereo not drawn)             IC50        9060
5  CC1(c2ccc(O)cc2)C(=O)c2c(N3CCNCC3)cc(Cl)cc2N(Cc2ccc(O)cc2)C1=O (stereo not drawn)             IC50        6580
6  CCNc1ccc(C2(C)C(=O)c3c(N4CCNCC4)cc(Cl)cc3N(Cc3ccccc3)C2=O)cc1 (stereo not drawn)             IC50        8050
7  COc1ccc(C2(C)C(=O)c3c(N4CCNCC4)cc(Cl)cc3N(Cc3ccc(-c4ccccc4)cc3)C2=O)cc1 (stereo not drawn)             IC50        7810
8  CC1(c2ccc(I)cc2)C(=O)c2c(N3CCNCC3)cc(Cl)cc2N(Cc2ccccc2)C1=O (stereo not drawn)             IC50         468
9  CC1(c2ccc(N)cc2)C(=O)c2c(N3CCNCC3)cc(Cl)cc2N(Cc2ccccc2)C1=O (stereo not drawn)             IC50        6020

Please give IC50 for each item listed below.
1. COc1ccc(C2(C)C(=O)c3c(N4CCNCC4)cc(Cl)cc3N(Cc3ccccc3OC)C2=O)cc1 (stereo not drawn)
2. CC1(c2ccc([N+](=O)[O-])cc2)C(=O)c2c(N3CCNCC3)cc(Cl)cc2N(Cc2ccccc2)C1=O (stereo not drawn)

Output:
7580
6350

---

Target: D1 (Homo sapiens)
Sequence (P21728 whole entry): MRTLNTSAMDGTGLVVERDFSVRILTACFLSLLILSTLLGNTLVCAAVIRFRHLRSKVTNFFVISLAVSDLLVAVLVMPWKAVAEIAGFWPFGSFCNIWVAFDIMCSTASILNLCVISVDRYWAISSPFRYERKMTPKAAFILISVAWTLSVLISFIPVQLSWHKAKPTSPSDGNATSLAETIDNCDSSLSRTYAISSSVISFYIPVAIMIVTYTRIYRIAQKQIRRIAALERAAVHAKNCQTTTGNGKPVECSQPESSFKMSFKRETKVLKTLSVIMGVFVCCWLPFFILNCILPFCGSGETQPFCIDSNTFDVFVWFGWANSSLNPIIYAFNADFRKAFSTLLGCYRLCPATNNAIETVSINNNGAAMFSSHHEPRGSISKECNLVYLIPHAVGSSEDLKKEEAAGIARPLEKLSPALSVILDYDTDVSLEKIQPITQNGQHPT
Assay: Radioligand binding, dopamine D1
Conditions: Table 4; read-out: Binding affinity, IC50 (nM) D1
Please go through the items and note down their IC50.
One number for each entry, in nM.

Please review the following examples before continuing.
>>> print(df.to_string())
                                   compound  measured_metric  data_value
0  COc1ccc(C2(C)C(=O)c3c(N4CCNCC4)cc(Cl)cc3N(Cc3cccc([N+](=O)[O-])c3)C2=O)cc1 (stereo not shown)             IC50        7640
1  CC1(c2ccc(O)cc2)C(=O)c2c(N3CCNCC3)cc(Cl)cc2N(Cc2cccc([N+](=O)[O-])c2)C1=O (stereo not shown)             IC50        4930
2  C[C@@]1(c2ccc(O)cc2)C(=O)c2c(N3CCNCC3)cc(Cl)cc2N(Cc2ccccc2)C1=O             IC50        1540

Please give IC50 for each item listed below.
1. COc1cccc(C2(C)C(=O)c3c(N4CCNCC4)cc(Cl)cc3N(Cc3ccccc3)C2=O)c1 (stereo not shown)
2. COc1ccc([C@]2(C)C(=O)c3c(N4CCNCC4)cc(Cl)cc3N(Cc3ccccc3)C2=O)cc1
3. COc1ccc(C2(C)C(=O)c3c(N4CCN(C)CC4)cc(Cl)cc3N(Cc3ccccc3)C2=O)cc1 (stereo not shown)

Output:
1: 7740; 2: 5210; 3: 174

---

Biological target: Human serotonin 5-HT6 receptor (Homo sapiens, UniProt P50406)
Construct: made in house; host or cells: insect Sf21 cells (baculovirus vector BacPAK8)
Sequence (P50406 whole entry): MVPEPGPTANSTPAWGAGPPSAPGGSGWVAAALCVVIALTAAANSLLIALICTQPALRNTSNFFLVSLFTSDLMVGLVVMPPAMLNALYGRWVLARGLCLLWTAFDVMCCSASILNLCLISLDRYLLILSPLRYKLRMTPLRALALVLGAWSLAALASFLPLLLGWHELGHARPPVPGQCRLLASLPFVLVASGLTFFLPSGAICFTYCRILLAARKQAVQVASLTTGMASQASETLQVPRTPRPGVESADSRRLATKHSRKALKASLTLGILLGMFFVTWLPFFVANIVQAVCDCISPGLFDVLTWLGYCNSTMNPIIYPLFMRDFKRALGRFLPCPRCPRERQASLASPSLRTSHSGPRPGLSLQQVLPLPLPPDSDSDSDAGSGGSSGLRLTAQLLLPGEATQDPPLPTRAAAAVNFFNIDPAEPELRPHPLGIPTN
Assay: [3H]LSD binding assay on cloned 5-HT6 receptor membranes
Conditions: comment on Table 2
Measured metric: binding affinity at 5-HT6 receptor labeled by [3H]LSD, in words

>>> df
                                   compound              data_value
0  COc1ccc(C2(C)C(=O)c3c(N4CCN(C)CC4)cc(Cl)cc3N(Cc3ccccc3)C2=O)cc1 (stereo not drawn)  significant affinities
1  COc1ccc(C2(C)C(=O)c3c(N4CCNCC4)cc(Cl)cc3N(Cc3cccc(Br)c3)C2=O)cc1 (stereo not drawn)  significant affinities
2  COc1ccc(C2(C)C(=O)c3c(N4CCNCC4)cc(Cl)cc3N(Cc3ccccc3)C2=O)cc1 (racemic)  significant affinities

---

Please go through the items and note down their IC50.
Target: 5-HT2a (Homo sapiens)
Construct: purchased Euroscreen/BioSignal Packard Inc
Sequence (P28223 whole entry): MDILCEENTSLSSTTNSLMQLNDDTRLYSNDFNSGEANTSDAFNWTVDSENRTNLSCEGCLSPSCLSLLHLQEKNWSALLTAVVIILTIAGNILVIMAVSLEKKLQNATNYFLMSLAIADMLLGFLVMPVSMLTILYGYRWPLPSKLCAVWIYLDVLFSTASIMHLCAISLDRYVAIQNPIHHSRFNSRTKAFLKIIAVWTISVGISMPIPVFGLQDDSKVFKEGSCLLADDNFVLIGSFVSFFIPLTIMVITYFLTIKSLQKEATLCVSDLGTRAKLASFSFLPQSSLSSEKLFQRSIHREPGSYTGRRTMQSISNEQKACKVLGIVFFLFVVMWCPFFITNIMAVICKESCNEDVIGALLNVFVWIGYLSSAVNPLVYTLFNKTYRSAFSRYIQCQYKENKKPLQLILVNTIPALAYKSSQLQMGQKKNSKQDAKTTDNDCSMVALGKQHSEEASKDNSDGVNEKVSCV
Test: Radioligand binding, 5-HT2a ([3H]Ketanserin)
Details: Table 4; [3H]Ketanserin 1 nM; read-out: Binding affinity, IC50 (nM) 5-HT2a
Answers are plain numbers, in nM.

Please review the following examples before continuing.
In [3]: df
Out[3]:
                                   compound  measured_metric  data_value
0  CN1CCN(c2cc(Cl)cc3c2C(=O)C(C)(c2ccc(O)cc2)C(=O)N3Cc2cccc([N+](=O)[O-])c2)CC1 (stereo not drawn)             IC50        6950
1  CC1(c2ccc(O)cc2)C(=O)c2c(N3CCNCC3)cc(Cl)cc2N(Cc2ccc3ccccc3c2)C1=O (stereo not drawn)             IC50        9480
2  COc1ccc(C2(C)C(=O)c3c(N4CCNCC4)cc(Cl)cc3N(Cc3ccccc3OC)C2=O)cc1 (stereo not drawn)             IC50        9150
3  CN1CCN(c2cc(Cl)cc3c2C(=O)C(C)(c2ccc(OCc4ccccc4)c(Br)c2)C(=O)N3Cc2ccccc2)CC1 (stereo not drawn)             IC50          95
4  COc1ccc(CN2C(=O)C(C)(c3ccc(OC)cc3)C(=O)c3c(N4CCNCC4)cc(Cl)cc32)cc1 (stereo not drawn)             IC50        8340
5  CC1(c2ccc(O)cc2)C(=O)c2c(N3CCNCC3)cc(Cl)cc2N(Cc2ccccc2O)C1=O (stereo not drawn)             IC50        8400
6  COc1ccc(C2(C)C(=O)c3c(N4CCNCC4)cc(Cl)cc3N(Cc3cccc(N)c3)C2=O)cc1 (stereo not drawn)             IC50        6610
7  CCN(CC)c1ccc(C2(C)C(=O)c3c(N4CCN(C)CC4)cc(Cl)cc3N(Cc3ccccc3)C2=O)cc1 (stereo not drawn)             IC50        7540

Please give IC50 for each item listed below.
1. CC1(c2ccc(O)cc2)C(=O)c2c(N3CCNCC3)cc(Cl)cc2N(Cc2ccc(O)cc2)C1=O (stereo not drawn)
2. CC1(c2ccc(N)cc2)C(=O)c2c(N3CCNCC3)cc(Cl)cc2N(Cc2ccccc2)C1=O (stereo not drawn)
3. CN1CCN(c2cc(Cl)cc3c2C(=O)[C@@](C)(c2ccc(N)cc2)C(=O)N3Cc2ccccc2)CC1 (stereo in doubt)
4. CCNc1ccc(C2(C)C(=O)c3c(N4CCNCC4)cc(Cl)cc3N(Cc3ccccc3)C2=O)cc1 (stereo not drawn)
5. COc1ccc(C2(C)C(=O)c3c(N4CCNCC4)cc(Cl)cc3N(Cc3cccc([N+](=O)[O-])c3)C2=O)cc1 (stereo not drawn)

Output:
1: 7450; 2: 8080; 3: 7010; 4: 7010; 5: 6480

---

Target: D1 (Homo sapiens)
Test: Radioligand binding, dopamine D1
Conditions: Table 4; read-out: Binding affinity, IC50 (nM) D1
Please go through the items and note down their IC50.
Answers are plain numbers, in nM.

>>> df
                                   compound  data_value
0  CC1(c2ccc(O)cc2)C(=O)c2c(N3CCNCC3)cc(Cl)cc2N(Cc2ccccc2)C1=O (racemic)        6820
1  CC1(c2ccc(O)cc2)C(=O)c2c(N3CCNCC3)cc(Cl)cc2N(CC2CCCCC2)C1=O (stereo not drawn)        8140
2  COc1ccc(C2(C)C(=O)c3c(N4CCNCC4)cc(Cl)cc3N(Cc3cccc(N)c3)C2=O)cc1 (stereo not drawn)        6520
3  CN1CCN(c2cc(Cl)cc3c2C(=O)C(C)(c2ccc([N+](=O)[O-])cc2)C(=O)N3Cc2ccccc2)CC1 (stereo not drawn)         814
4  CC1(c2ccc(N)cc2)C(=O)c2c(N3CCNCC3)cc(Cl)cc2N(Cc2ccccc2)C1=O (stereo not drawn)        9010
5  CN1CCN(c2cc(Cl)cc3c2C(=O)[C@@](C)(c2ccc(N)cc2)C(=O)N3Cc2ccccc2)CC1 (stereo in doubt)        7090
6  COc1ccc(C2(C)C(=O)c3c(N4CCNCC4)cc(Cl)cc3N(Cc3ccc(-c4ccccc4)cc3)C2=O)cc1 (stereo not drawn)        6000
7  CC1(c2ccc(O)cc2)C(=O)c2c(N3CCNCC3)cc(Cl)cc2N(Cc2ccc(O)cc2)C1=O (stereo not drawn)        9010
8  CCN1C(=O)C(C)(c2ccc(OC)cc2)C(=O)c2c(N3CCNCC3)cc(Cl)cc21 (stereo not drawn)        7890
9  CCN(CC)c1ccc(C2(C)C(=O)c3c(N4CCN(C)CC4)cc(Cl)cc3N(Cc3ccccc3)C2=O)cc1 (stereo not drawn)        7700

Please give IC50 for each item listed below.
1. CC1(c2ccccc2)C(=O)c2c(N3CCNCC3)cc(Cl)cc2N(Cc2ccccc2)C1=O (stereo not drawn)
2. CC1(c2ccc(O)cc2)C(=O)c2c(N3CCNCC3)cc(Cl)cc2N(Cc2ccc(-c3ccccc3)cc2)C1=O (stereo not drawn)
3. CC1(c2ccc(O)cc2)C(=O)c2c(N3CCNCC3)cc(Cl)cc2N(Cc2cccc(Br)c2)C1=O (stereo not drawn)
4. CC1(c2ccc(O)cc2)C(=O)c2c(N3CCNCC3)cc(Cl)cc2N(Cc2ccccc2O)C1=O (stereo not drawn)

Output:
[5140, 6120, 9160, 8000]

// sample CC1(c2ccc([N+](=O)[O-])cc2)C(=O)c2c(N3CCNCC3)cc(Cl)cc2N(Cc2ccccc2)C1=O (stereo not drawn) , its IC50 was 5810
